Settings: buffer; pH 7.4; 200.0 µM
MEASURED ENDPOINT: solubility kinetic

| COMPOUND | solubility kinetic |
| --- | --- |
| CCn1c(C)nc2cc(C(=O)NNC(=O)CN(C)S(=O)(=O)c3ccc(NC(C)=O)cc3)ccc21 | > 73 µg/mL |
| Cc1cc(Br)ccc1S(=O)(=O)n1ccnc1C | > 47.3 µg/mL |
| O=C(Nc1ccccc1C(F)(F)F)c1cc2ccccc2o1 | < 0.7 µg/mL |

Query :: // query solubility kinetic value for entry O=C1CCC([N+](=O)[O-])C(c2cccc3ccccc23)N1 (stereo unspecified)
Result :: > 40.5 µg/mL

Query :: Input COCC(=O)OC/C(O)=C(\C#N)c1nc2ccccc2[nH]1
Result :: > 43.1 µg/mL

Query :: Input CCCNC(=O)c1oc2ccc3c(c2c1C)C(O)CC(C)(C)O3 (stereo unspecified)
Result :: > 47.6 µg/mL

====

Settings: buffer; pH 7.4; 200.0 µM
Listing of recorded solubility kinetic by entry.

Guide cases for solubility kinetic, answers given:
| COMPOUND | solubility kinetic |
| --- | --- |
| Cc1ccc(Cl)cc1NC(=O)CN1CCOCC1 | > 40.3 µg/mL |
| Cc1cc(=O)[nH]c(SCC(=O)NCC2CCCO2)n1 (stereo not given) | > 42.5 µg/mL |
| O=C(NCCN1CCCCC1)Nc1ccc(Cl)cc1 | > 42.3 µg/mL |
| COc1ccc(NC(=O)C(CC(=O)O)C(C)c2ccccc2)cc1 (stereo not given) | > 49.1 µg/mL |
| CCN(CC(=O)NC(C)C)C(=O)[C@@H](NC(=O)c1ccco1)C(C)C | > 50.6 µg/mL |
| COc1ccccc1CNC1CCN(Cc2ccccc2)CC1 | > 46.6 µg/mL |
| CCN(C(=O)c1ccco1)c1nnc(-c2cccnc2)s1 | > 45.1 µg/mL |
| COc1ccccc1CNC(=O)COC(=O)Cc1cccc(F)c1 | > 49.7 µg/mL |

Query :: // query solubility kinetic value for entry CCN(CC)CCOC(=O)c1ccc([N+](=O)[O-])cc1.Cl
Result :: > 45.4 µg/mL

Query :: Input CCOc1ccc(-n2c(C)c(C(C)=O)c3cc(O)ccc32)cc1
Result :: < 0.7 µg/mL

====

Listing of recorded solubility kinetic by entry.
Settings: buffer; pH 7.4; 200.0 µM

| MOLECULE | MEASURED ENDPOINT | RESULT |
| --- | --- | --- |
| CC(C)(CN1CCCC1)NS(=O)(=O)c1ccc(Cl)cc1 | solubility kinetic | > 0.0475 mg/mL |
| CN(C(=O)c1ccncc1)C1CCCCC1 | solubility kinetic | > 0.0327 mg/mL |
| Cc1cccc(C)c1N1C(=O)CC(N2CCSCC2)C1=O (stereo not given) | solubility kinetic | > 0.0457 mg/mL |
| COc1cc2nc(C(C)(C)C)oc(=O)c2cc1OC | solubility kinetic | > 0.0395 mg/mL |

Now consider a different molecule.
Query :: // query solubility kinetic value for entry O=C(c1cccs1)N1CCN=C1SCc1ccccc1F
Result :: < 0.0003 mg/mL

====

Settings: buffer; pH 7.4; 200.0 µM
Listing of recorded solubility kinetic by entry.

Query :: // query solubility kinetic value for entry NS(=O)(=O)c1ccc(CNC(=O)Cc2ccsc2)cc1
Result :: > 46.6 µg/mL

Query :: Input COc1ccc(CCN(C)C2CC(=O)N(c3ccccc3)C2=O)cc1OC (stereo unspecified)
Result :: > 55.3 µg/mL

Query :: Input Cc1c(NC(=O)C(c2ccccc2)c2ccccc2)cccc1C(=O)O
Result :: > 51.8 µg/mL

Query :: Input COc1ccc2nccnc2c1[N+](=O)[O-]
Result :: > 30.8 µg/mL

Query :: Input CCCCNC(=O)c1cc(C)nc2ccccc12
Result :: > 36.3 µg/mL

Query :: Input CC1C(=O)N2CCCc3cc(NC(=O)c4ccccc4F)cc1c32 (stereo unspecified)
Result :: > 48.7 µg/mL

====

Details: buffer; pH 7.4; 200.0 µM
Listing of recorded solubility kinetic by entry.

Query :: // query solubility kinetic value for entry Cc1cccc(CN2CCN(C(=S)Nc3ccccc3)CC2)c1
Result :: > 48.8 µg/mL

====

Listing of recorded solubility kinetic by entry.
Conditions: buffer; pH 7.4; 200.0 µM

Guide cases for solubility kinetic, answers given:
| COMPOUND | RESULT |
| --- | --- |
| CN1CC2([N+](=O)[O-])CC=C(Cl)C([N+](=O)[O-])(C1)C2 (stereo not given) | > 39.3 µg/mL |
| CCc1ccc2oc(C(=O)Nc3nonc3C)c(C)c2c1 | < 0.2 µg/mL |
| O=C(CN1C(=O)CSc2ncccc21)Nc1ccccc1F | > 47.6 µg/mL |

Query :: // query solubility kinetic value for entry O=C(NC1CC1)c1cc(Cl)nc2ccccc12
Result :: > 37 µg/mL

Query :: Input COc1ccc(CN(C)C(=O)c2ccncc2)c(OC)c1
Result :: > 42.9 µg/mL

====

Settings: buffer; pH 7.4; 200.0 µM
MEASURED ENDPOINT: solubility kinetic

Guide cases for solubility kinetic, answers given:
| COMPOUND | solubility kinetic |
| --- | --- |
| OC1/C(=C/c2ccccc2F)N2CCC1CC2 (stereo unspecified) | > 35 µg/mL |
| CNC(=O)COC(=O)c1ccc(Cl)c(S(N)(=O)=O)c1 | > 46 µg/mL |
| CC(NC(=O)C(=O)NCCc1c[nH]c2ccccc12)c1ccccc1 (stereo unspecified) | < 0.2 µg/mL |

Query :: // query solubility kinetic value for entry O=C(NCC1CCCO1)c1cc2ccccc2nc1Cl (stereo unspecified)
Result :: > 43.6 µg/mL

Query :: Input Cc1ccc(NC(=O)CNC(=O)C2CCCCC2)nc1
Result :: > 41.3 µg/mL

Query :: Input O=C(NCc1ccc(Cl)cc1)c1ccncc1
Result :: > 37 µg/mL

Query :: Input Cc1ccsc1C(=O)N1CCN(C(=O)c2ccco2)CC1
Result :: > 45.7 µg/mL

Query :: Input CNC(=O)COC(=O)/C=C/c1nc2ccccc2s1
Result :: > 41.4 µg/mL

====

Conditions: buffer; pH 7.4; 200.0 µM
MEASURED ENDPOINT: solubility kinetic

Guide cases for solubility kinetic, answers given:
| MOLECULE | solubility kinetic |
| --- | --- |
| COc1ccc(/C=C2\C(=O)NC(=S)N(C)C2=O)cc1C | > 43.6 µg/mL |
| CN1CCC(N(C)S(=O)(=O)c2ccc(Cl)cc2)CC1 | > 45.4 µg/mL |
| COC(=O)c1sccc1NC(=O)c1ccc(C(C)C)cc1 | < 0.6 µg/mL |
| Nc1ccc(CCn2ccnc2)cc1 | > 28.1 µg/mL |
| CN(CC(=O)Nc1ccccc1Cl)C(=O)COC(=O)c1ccc([N+](=O)[O-])s1 | > 61.8 µg/mL |
| Cc1cccc(C(=O)N/C(=C\c2ccco2)C(=O)N2CCCC2)c1 | > 48.7 µg/mL |
| CCO/C=C1\C(=O)N(c2ccc(OCC)cc2)C(=O)c2ccccc21 | > 50.6 µg/mL |
| C=CCSc1nc(C)cc2c1C(=O)OC2 | > 33.2 µg/mL |

Query :: // query solubility kinetic value for entry CC(=O)NC(CC(=O)N1CCN(C(C)=O)CC1)c1ccccc1 (stereo not given)
Result :: > 47.6 µg/mL

Query :: Input COc1ccccc1-n1ccnc(SCC(=O)NC2CCCC2)c1=O
Result :: > 53.9 µg/mL

====

Details: buffer; pH 7.4; 200.0 µM
MEASURED ENDPOINT: solubility kinetic

Guide cases for solubility kinetic, answers given:
| MOLECULE | solubility kinetic |
| --- | --- |
| O=C(Cc1ccccc1Cl)N1CCOCC1 | > 36 µg/mL |
| Cc1cc(NC(=O)NCC(F)(F)F)no1 | > 33.5 µg/mL |
| O=[N+]([O-])c1cccc(-c2nnc(SCc3cccnc3)o2)c1 | > 47.1 µg/mL |

Query :: // query solubility kinetic value for entry CCc1cc2c(SC(C)C(=O)NC3CCCC3)ncnc2s1 (stereo not drawn)
Result :: 34.4 µg/mL

Query :: Input COc1ccc(OC)c(NC(=O)CCC(=O)Oc2ccc(C)cc2)c1
Result :: 49.1 µg/mL

Query :: Input C/C(=N/NC(=O)CNC(=O)c1cccnc1)c1ccccc1
Result :: > 44.4 µg/mL

Query :: Input O=C(CNS(=O)(=O)c1ccccc1)NCc1ccco1
Result :: > 44.1 µg/mL

Query :: Input COc1cccc(N2CCN(C(=O)c3cc4cc(Cl)ccc4[nH]3)CC2)c1
Result :: 11.8 µg/mL

====

Details: buffer; pH 7.4; 200.0 µM
Rule: Y for solubility kinetic not less than 5 µg/mL, N for anything less.

// known answers, use as guide
| COMPOUND | LABEL VALUE |
| --- | --- |
| Cc1cccnc1NC(=O)C(c1ccccc1)c1ccccc1 | Y |
| Cc1ccc(-c2csc(CC(N)=O)n2)cc1 | Y |
| Cc1ccccc1N1C(=O)C2CCCN2C1=S (stereo not given) | Y |
| COc1ccc(CN(C)C(=O)c2ccc(NS(=O)(=O)c3ccc4[nH]c(=O)[nH]c4c3)cc2)c(OC)c1OC | Y |
| CCC(C)N(C)C1CCN(C(=S)Nc2ccc(OC)cc2)CC1 (stereo not given) | Y |

Note: attention shifts to another entry.
Query :: Is solubility kinetic for CC(=O)Nc1ccc2c(c1)nc(C)n2-c1ccccc1 at or above 5 µg/mL?
Result :: Y

Attribution: PubChem BioAssay AID1996
